# Assay Method Text: yeast display, Sf9 membrane polyspecificity reagent, FACS + sequencing; frameworks hold sequencing errors
Value Kind: polyreactivity (PSR sort gate)

Use these answered entries as a reference point.
>  <Residues>
QVQLVESGGGLVQAGGSLRLSCAASGRTFWKYAMGWSRQAPGKERELVAAITDDDSTDYADSVKGRFTISRDNAKNTVYLQMTRLKPEDTAVYYCNADSSRYYRALEYWGQGTQVTVSA

>  <polyreactivity (PSR sort gate)>
low polyreactivity

$$$$
>  <Residues>
QVQLEESGGGLVQAGGSLRLSCAASGRTFQYYTMGWYRQAPGKEREFVAAIRDSGGSTYYADSVKGRFTISRDNAKNTVYLQMNSLKPEDTAVYYCNKVPNGPSNYDYWGQGTQVTVSS

>  <polyreactivity (PSR sort gate)>
high polyreactivity

$$$$
>  <Residues>
QVQLVESGGGLVQAGGSLRLSCAASGFTFKRYAMGWYRQAPGKERELVAAISYSGGSTYYADSVKGRYTISRDNAKNTVYLQMNSLKPEVTAVYYCNTGRRYYSYRRDYWGQGTQVTVSS

>  <polyreactivity (PSR sort gate)>
high polyreactivity

$$$$
>  <Residues>
QVQLQESGGGLVQAGGSLRRSCAASGSIFSHWAMGWYRQTPGKERELVASITAGGNTNYADSVKGRFTISRDNAKNTVYLPMDSLKPEDTAVYYCAADGYYGAWDLEYYYWGQGTQVTVSS

>  <polyreactivity (PSR sort gate)>
low polyreactivity

$$$$
>  <Residues>
QVQLVESGGGLVQAGGSLRLSCAASGLILKYYAMGWYRQAPGKEREFVAAITRRGGITYYADSVKGRFTISRDNAKNTVYLQMNSLKPEDTAVYSCAADPILGSLAYWRYSYPLYDYWGQGTQVTVSS

>  <polyreactivity (PSR sort gate)>
low polyreactivity

$$$$

Prompt: Consider the sequence shown here: QVQLVESGGVFVQAGGSLRLSCAASGSIFPYVNAMGWYRQAPGKEREFVASIPGGGGTKYADSVKGRFTISRDNAKNTVYLQMNSLKAEDTAVYYCNATSGNPASTAWMNYWGQGTQVSVSS What is its recorded polyreactivity (PSR sort gate)?
Response: low polyreactivity

Prompt: Consider the sequence shown here: QVQLVESGGGLVQAGGSLRLSCAASGNTLVKNAMGWYRQAPGNERELVAAISSSGGRTYYADSVKGRFTISRDNAKNTVYLQMNSLKPEDTAVYYCAARYPSGYYYWGQGTQVTVSS What is its recorded polyreactivity (PSR sort gate)?
Response: high polyreactivity

###

# Assay Method Text: yeast display, Sf9 membrane polyspecificity reagent, FACS + sequencing; frameworks hold sequencing errors
Value Kind: polyreactivity (PSR sort gate)

>  <Residues>
QVQLVESGGVLVQAGGSLRLSCAASGYIFEGNAMGWYRQAPGKERDFVAAITKRGGSTYYADSVKGRFTISRDNAKNTVYLQMNSLKPEDTAVYYCAADRSYPRAGRYDYWGQVTQVTVSS

>  <Value Kind>
polyreactivity (PSR sort gate)

>  <Reading>
low polyreactivity

$$$$
>  <Residues>
QVQLVESGGGLVKAGVSLRLICAASGSTFWYNDRGSYRQSPGKERELVASNSWSGGDTYYADSVKGRLTISRDNAQNTVYFQMNRLKPEDTAVYNCAKGNNWISRLMDYWGQGTQVTVSS

>  <Value Kind>
polyreactivity (PSR sort gate)

>  <Reading>
low polyreactivity

$$$$
>  <Residues>
QVQLVESGGGLVQAGGSLRLSCAASGSTFPGYAMGWYRQAPGKERELVAAISASGGSTYYADSVKGRFTISRDNAKNTVYLQMNSLKPEDTAVYYCAKVLSRGASADDYWGQGTQVTVSS

>  <Value Kind>
polyreactivity (PSR sort gate)

>  <Reading>
low polyreactivity

$$$$
>  <Residues>
QVQLVESGGGLVQAGGSLRLSCAASGRTLKWYAMGWYRQAPGKERELVAAISWSGGSTYYADSVKGRFTISRDNAKNTVYLQMNSLKPEDTAVYYCAVAVTSYSSKKLYYWGQGTQVTVSS

>  <Value Kind>
polyreactivity (PSR sort gate)

>  <Reading>
low polyreactivity

$$$$

Prompt: Consider the sequence shown here: QVQLHESGGGLVQAGGSLRLSCAASGTISYAGPMGWYRQAPGKEREFVAGIGVGSNTNYADSVKGRYTIIRDNAKNTVYLQMNSLKPEDTAVDYCAVGGYAPLGRPYWGQGTQVTVSS What is its recorded polyreactivity (PSR sort gate)?
Response: low polyreactivity

Prompt: Consider the sequence shown here: QVQLVESGGGLVQAGGSLRLSCAASGRIFYLNAMGWYRQAPGKERELVAAMSGSTGSTYYADSVKGRFTISRDNAKNTVYLQMNSLKPEDTAVYYCNAVLSSNTKWRYPGDYWGQGTQVTVSS What is its recorded polyreactivity (PSR sort gate)?
Response: low polyreactivity

Prompt: Consider the sequence shown here: QVQLVESGGGLVQAGGSLRLSCAASGGTFRYYAMGWYRQAPGKERELVAAITSGDTTNYADSVKGRFTISRDNAKNTVYLQMNSLKPEDTAVYYCAKELQVRQAGDYWGQGTQVTVSS What is its recorded polyreactivity (PSR sort gate)?
Response: low polyreactivity

Prompt: Consider the sequence shown here: QVQLVESGGGLVQAGGSLRLSCAASGSTFAYNDMGWYRQAPGKERELVADSRSGGNTNYADSVKGRFTISRDNAKNTVYLQMNSLKREDTAVYYCATDGYRIDVFHPDYRYDYWGHGTQVTVSS What is its recorded polyreactivity (PSR sort gate)?
Response: low polyreactivity

###

# Assay Method Text: yeast display, Sf9 membrane polyspecificity reagent, FACS + sequencing; frameworks hold sequencing errors
Value Kind: polyreactivity (PSR sort gate)

>  <Residues>
QVQLVESGGGLVQAGGSLRLSCAASGSTFQKNVMGWYRQAPGKERELVAAITSVGSTNYADSVKGRFTISRDNAKNTVYLQMNSLKPEDTAVYYCAKDQVPYYYVFGVYDYDYWGQGTQVTVSS

>  <Reading>
low polyreactivity

$$$$
>  <Residues>
QVQLVESGGGLVQAGGSLRLSCAASGSILPYYAMGWYRQAPGKERELVATITDGTDTYYADSVKGRFTISRDNAKNTVYLQMNSLKPEDTAVYYCNADGYVYYLHEDYWGQGTQVTVSS

>  <Reading>
low polyreactivity

$$$$
>  <Residues>
QVQLVESGGGLVQAGGSLRLSCAASGGTFVSYAMGWYRQAPGKERELVVAITYSGGSTYYADSVKGRFTISRDNAKNTVYLQMNRLKPEDTAVYYCAAPKFSYFSYSPRGKFKYEYWGQGTQVTVSS

>  <Reading>
low polyreactivity

$$$$

###

# Assay Method Text: yeast display, Sf9 membrane polyspecificity reagent, FACS + sequencing; frameworks hold sequencing errors

>  <Residues>
QVQLVESGGGLVQAGGSLRLSCAASGSTFDRYTMGWYRQAPGKERELVAAISESDGSTYYADSVKGRFTISRDNAKNTVYLLMNSLKPEDTAVYFCAAEWTHYWWYQYDFWGQGTQVTVSS

>  <polyreactivity (PSR sort gate)>
high polyreactivity

$$$$
>  <Residues>
QVQLVESGGGLVQAGGSLLLSCAASGRIFYRYAMGWYRQAPGKERELVAAISRGGSTYYADSVKGRYTISRDNAKNTVYLQMNSLKPEDTAVYYCAKDGYWGYDYWGQGTQVTVSS

>  <polyreactivity (PSR sort gate)>
high polyreactivity

$$$$

###

# Assay Method Text: yeast display, Sf9 membrane polyspecificity reagent, FACS + sequencing; frameworks hold sequencing errors
Value Kind: polyreactivity (PSR sort gate)

Use these answered entries as a reference point.
>  <Residues>
QVQLVESGGGLVQAGGSLRLSCSASGSIFSGNTMGWYRQAPGKERELVAAISGGGSTNYADSVKGRFTISRDNAKNTVYLQMNSLKPEDTAVYYCAKDLSLGASRMDYWGQGTQVTVSS

>  <polyreactivity (PSR sort gate)>
low polyreactivity

$$$$
>  <Residues>
QVQLVESGGGIVQAGGSLRLSCAASGSTFTWYAMGLYRQAPGKERELVADISYGGGSTYYADSVKGRFTISRDNSKNTVYLQMNSLKPEDTAVYYCTALGAKGYVKGFDYWGQGTQVTVSS

>  <polyreactivity (PSR sort gate)>
low polyreactivity

$$$$
>  <Residues>
QVQLVESGGGLVQAGGSLRLSCAASGRIITYYAMGWYRQAPGKERELVAAITASGSRTYYADSVKGRFTISRDNAKNTVYLQMNSLKPEDTAVYYCAALSRLSPLSGSYYWGQGTQVTVSS

>  <polyreactivity (PSR sort gate)>
high polyreactivity

$$$$
>  <Residues>
QVQLVESGGGLVQAGGSLRLSCAASGFISDWYAMGWYRQAPGKERELVATIDWIGGSTYADSVKGRFTISRDNAKNTVYLQMNSLKPEDTAVYYCAADSYFIAWYGAHYAYDYWRQGTQVTVSS

>  <polyreactivity (PSR sort gate)>
low polyreactivity

$$$$
>  <Residues>
QVQLVESGGGLVQAGGSLRLSCAASGITFPRYAMGWYRQAPGKERELVARISWGGGRTYYADSVKGRFTISRDNAKNTVYLPMNSLKPEDTAVYYSAARTWADPYGYWGQGTQVTVSS

>  <polyreactivity (PSR sort gate)>
high polyreactivity

$$$$
>  <Residues>
QVQLVESGGGLVQAGGSLRLSCAASGSIFYWNAMGWYRQAPGKDREFVAAISRSGGSTYYADSVKGRFTISRDNGKNTVYLQMYSLKPEDTAVYFCAADVFYFTYDYWGQCTQVTVSS

>  <polyreactivity (PSR sort gate)>
low polyreactivity

$$$$

Prompt: Consider the sequence shown here: QVQLVESGGGLVQAGGSLRLSCAASGRIFARNVMGWYRQAPGKERELVAGISRSGGTTYYADSVKGRFTISRDNAKNTVYLQMNSLKPEDTAVYYCAAYYFLENDYWGPGTQVTVSS What is its recorded polyreactivity (PSR sort gate)?
Response: high polyreactivity

Prompt: Consider the sequence shown here: QVQLVESGGGLVQAGGSLRLSCAASGGIILPYAMGWYRQAPGKERELVAAISGRTGSTNYADSVKGRFTISRDNAKNTVYLQMNSLKPEDTAVYYCAARGVRSYFFPYNYWGQGTQVTVSS What is its recorded polyreactivity (PSR sort gate)?
Response: high polyreactivity

Prompt: Consider the sequence shown here: QVQLVESGGGLVQAGGSLRLSCAASGSTFYLYAMGWYRQAPGKERELVAVITTDGSTTYADSVKGRFTISRDNAKNTVYLQMNSLKPEDTAVYYCAAYGGNGQYYSQYDYWGQGTQVTVSS What is its recorded polyreactivity (PSR sort gate)?
Response: low polyreactivity

Prompt: Consider the sequence shown here: QVQLVESGVGLVQAGGSLRLSCASSGYTFFYYSMGWYRQAPGKEREFVAAISTGTGSTYYADSVKGRFTISRDNAKNTVYLQMNSLKPEDTAVYYCAADGTLYYFGLEYDYWGQGTQVTVSS What is its recorded polyreactivity (PSR sort gate)?
Response: low polyreactivity

Prompt: Consider the sequence shown here: QVQLVESGGGLVQAGGSLRLSCAASGRILWGYAMGWYRQATGKERELVATITRGGSTNYADSVKGRFTISRDNAKNTFYLKMNRVKPEDTAFYDCAAGELYIVNYTYYFEMDYWGEGTQVTVSS What is its recorded polyreactivity (PSR sort gate)?
Response: high polyreactivity

Prompt: Consider the sequence shown here: QVQLVESGGGLVHAGGRLRLSCAAYGITFSSYAMGWYRQAPGKERELVAAITWSGTSTYYADSVKGRFTISRDNAKNTVYLQMNSLKPEYTAVSYCADEAGAPFSISHDYWGQGTQVTVSS What is its recorded polyreactivity (PSR sort gate)?
Response: low polyreactivity

Prompt: Consider the sequence shown here: QVQLVESGGGLVQAGGSLRLSCAASGSIFGTNAMGWYRQAPGKERELVAAINWSGGTTYYADSVKGRFTISRDNAKNTVYLQMNSLKPEDTAVYYCATVFFVLPPTRFDSWGQGTQVTVSS What is its recorded polyreactivity (PSR sort gate)?
Response: low polyreactivity

Prompt: Consider the sequence shown here: QVQLVESGGGLVQAGGSLRLSCAASGRIYLKYTMGWYRQAPGKEREMVAAISRGGSTYYADSVKGRFTISRDNAKNTVYLQMNSLKPEDTAVYYCAATSYRRTGYNYWGQGTQVTVSS What is its recorded polyreactivity (PSR sort gate)?
Response: high polyreactivity

Prompt: Consider the sequence shown here: QVQLVESGGGLVQAGGSLRLSCAASGRTFYPNAMGWYRQAPGKERELVAAITWRSGSTYYADSVKGRFTISRDNAKNTVYLPMNSLKPEDTAVYYCNADSDYPYYPGKFDYWGQGTQVTVSS What is its recorded polyreactivity (PSR sort gate)?
Response: low polyreactivity

Prompt: Consider the sequence shown here: QVQLVESGGGLVQAGGSLRLSCAASGRIFKSNAMGWYRQAPGKEWELVASISRSGSTNYADSVKGRFTISRDNAKNTVYLQMNSLKPEDTAVYYCAKDPDAKGGGYDYWGQGTQVTVSS What is its recorded polyreactivity (PSR sort gate)?
Response: low polyreactivity

Prompt: Consider the sequence shown here: QVQLVESGGGLVQAGGSLRLSCAASGNTFAGNAMGWYRHAPRKERELVAAISRSGVTTRYGDSVKGRFTISRDNAKNTVYLQMNSLKPEDTAVYYCNAVPRLRQTREYWGQGTQVTVSS What is its recorded polyreactivity (PSR sort gate)?
Response: high polyreactivity

Prompt: Consider the sequence shown here: QVHLVESGGGLVQAGGSLRLSCSASGSTFFPYAMGWYRQAPGKERELVAAITSGGRTKYADSVKGRFTISRDNAKNTVYLQMNSLKPEDNAVYYCAARGLIKEYGGPYRRFGYWGQGTKVTVSS What is its recorded polyreactivity (PSR sort gate)?
Response: high polyreactivity

Prompt: Consider the sequence shown here: QVQLVESGGGLVQAGGSLRLSCAASGSTQYWNAMGWYRQAPGKERELVAAISRSGGSTYYADSVKGRFTISRDNAKNTVYLQINSLKPEDTAVYYCAARRYVPHTEYYYWGQGTQVTVSS What is its recorded polyreactivity (PSR sort gate)?
Response: low polyreactivity

Prompt: Consider the sequence shown here: QVQLVESGGGLVQAGGSLRLSCAASGSTFWYYAMGWYRQAPGKERELVADITYSGVSTYYADSVKGRFTISRDNAKNTVYLQMNSLKPEDTAVYYCNADWGSVNGYSGYYYWGQGTQVNVSS What is its recorded polyreactivity (PSR sort gate)?
Response: low polyreactivity

Prompt: Consider the sequence shown here: QVQLVESGGGLVQAGGSLRLSCAASGSIDNIYAMGWYRQAPGKERELVATITGIADSTYYADSVKGRFTISRDNAKNTVFLQMNSLKPEDTAVYYCAADKYVAEYDYWGQGTQVTVSS What is its recorded polyreactivity (PSR sort gate)?
Response: low polyreactivity
